- Test system: LXRb:RXRa (NR concentration 270 nM, RXRa partner concentration 90 nM)
- PROTOCOL: PBM binding z-score (relative to random genomic background probes); higher = stronger binding; sequences stand for … in GC…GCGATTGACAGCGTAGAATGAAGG
RECORDED_METRIC: PBM binding z-score

>>> experimental_value("TCCCGGAGGACACGAAAGGTCAGAGCTCGACATC")
2.93
>>> experimental_value("ATATGTAGGTTAGCTGGTGTCATTCAGACTAGGC")
0.765
>>> experimental_value("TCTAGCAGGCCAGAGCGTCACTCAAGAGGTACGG")
-1.08
>>> experimental_value("GGAACGAGGGCATTCGTGTTGATAGCATGGCGAT")
0.152
>>> experimental_value("CCTACTAGGTCAATGGTCAGCTAAAGCAGCTCGC")
1.87
>>> experimental_value("CGAACTTGGTCATCCAGGACAGTGAATACATTGA")
-0.13
>>> experimental_value("ATCTCTAGGTAAGAGTTCAGTGAATCCCGAGGAT")
0.873
>>> experimental_value("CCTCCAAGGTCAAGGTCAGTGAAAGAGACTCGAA")
4.56
>>> experimental_value("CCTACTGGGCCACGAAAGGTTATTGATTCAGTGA")
1.1
>>> experimental_value("CAAACTCGGTCAAAGGTCAAAGTCGAGCCAACCA")
6.72
>>> experimental_value("TCTTGTAGATCAATGGAGGTTAAGAAAGTGCGCT")
1.3
>>> experimental_value("GCAGACAGGTGAAACGCAGGTAACTCAGGGTGGC")
-0.48
>>> experimental_value("ATACCAAGCTGATCGTGAGGTCGTTGATACTAAC")
0.818
>>> experimental_value("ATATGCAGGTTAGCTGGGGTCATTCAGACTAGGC")
4.92
>>> experimental_value("AGAATGAGGTTATTAAGATCAGGCAATTGCGGTC")
1.11
>>> experimental_value("TCTCGGAGGACACGAAAGGTCAGAGGTCGACATC")
4.14
>>> experimental_value("ATACCAAGGTGATCGCGAGGTCGTTGATACTAAC")
1.06
>>> experimental_value("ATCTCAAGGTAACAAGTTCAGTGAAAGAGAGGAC")
0.971
>>> experimental_value("ATCGCTAGGTAAAGATAGTTCAGTGAATGCAAAT")
0.21
>>> experimental_value("CGAAAGAGGGCATGAGTTGATAGCAAATGCCGAT")
0.0383
>>> experimental_value("TCTATTAGTTGAAGGGCAACCGCCGAGTCCGTTT")
0.586
>>> experimental_value("TTACTAAGGTGAAAGGTCGTTGATGCACGCCTTG")
3.47
>>> experimental_value("CTGCCAAGGTGAACAAGGTCGTTGATTACTATTC")
1.15
>>> experimental_value("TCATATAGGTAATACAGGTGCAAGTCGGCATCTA")
0.742
>>> experimental_value("ACTAGCAGGCCAAGGGTCGCTCAAGATTAGTCCG")
0.0881
>>> experimental_value("CTACCAAGGTGAACAAGGTCGTTGATTACTATTC")
1.91
>>> experimental_value("ATCGAGAGGTCGTGAGGTGAGTATACAGAAAGGC")
2.25
>>> experimental_value("ATATCTAGGTTAAGGGTCATTCAGGTTGGTTCGC")
4.75
>>> experimental_value("CCTCCAAGGTCAGCAGGTCAGTGAAAGCGACGTG")
2.93
>>> experimental_value("TCTCAGAGGACACGAAAGGTCAGAGCTCGACATC")
3.12
>>> experimental_value("GATACCGGGTCAAGGCCAGAGTACGCGTATTGAT")
2.45
>>> experimental_value("CGTCCAAGGACATAGGAGGTCAGTGAAGACAGAT")
1.26
>>> experimental_value("CGTCCAAGGTCAAAGGTCAGTGGAGAGATGACGG")
6.84
>>> experimental_value("CCTTACGGTTCACGAGGTTATAGCACGACGAGCG")
2.57
>>> experimental_value("CATACTAGGTCACCGGAAGGTCAAAGTCCGCATG")
5.54
>>> experimental_value("TCATAAAGGTAAAGGTGAAAGTCGAACGATATGA")
1.63
>>> experimental_value("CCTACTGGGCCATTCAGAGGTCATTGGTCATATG")
3.5
>>> experimental_value("TCATATAGGTCAACAGGTGAAAGTCCGTAAGTTA")
4.2
>>> experimental_value("CCTTACGGGTCACTCCAGGTAATAGCATCGGAGT")
3.31
>>> experimental_value("CCGACTGGGCCAAGGTCATTGATCAGTCAAAGCA")
2.65
>>> experimental_value("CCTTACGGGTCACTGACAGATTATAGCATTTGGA")
3.31
>>> experimental_value("CCTACTGGGCCAAAAAGGTCATTGACGCCGATAA")
4.33
>>> experimental_value("GTACCAAGGTGAAAAGGTCGTTGATGAGTAGGCG")
1.99
>>> experimental_value("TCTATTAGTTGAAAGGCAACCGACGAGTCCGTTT")
0.901
>>> experimental_value("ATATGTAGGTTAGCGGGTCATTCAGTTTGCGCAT")
2.45
>>> experimental_value("ATCTCTAGGTAACCATGTTCAGTGAATGCCGAAC")
0.435
>>> experimental_value("ATCTCTAGGTAAAAGTTCAGTGCATCCCGAGGAT")
0.979
>>> experimental_value("TCTGCCAGGTCAGTTGGTCAGCTAACGAGCTGCC")
0.653
>>> experimental_value("CCTTACGGGTCACTGATAGGTTATAGCATTTGGA")
3.53
>>> experimental_value("TGAATGAGGTTAAAGATCAGGGAGCGTGGCGTCG")
1.14
>>> experimental_value("CAAACTATGTCACAGAGGTCAAAGTCCGTGCGTA")
5.11

----------
Reported PBM binding z-score values are given for each entry in this list.
- Tested on: LXRb homodimer (NR concentration 270 nM)
- PROTOCOL: PBM binding z-score (relative to random genomic background probes); higher = stronger binding; sequences stand for … in GC…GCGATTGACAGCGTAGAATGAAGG
RECORDED_METRIC: PBM binding z-score

>>> experimental_value("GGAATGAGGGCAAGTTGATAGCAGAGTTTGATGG")
0.0849
>>> experimental_value("GCTATTGGTTGAAAGGGCAACCGAATGATTCTCG")
-0.225
>>> experimental_value("CCAGATAGGTGAGAAGGTAACTCAGCCTCGATTA")
-0.314
>>> experimental_value("CGTCCAATGTCAGCAGGTCAGTGAAAGCGACGTG")
-0.161
>>> experimental_value("TCTTGTAGATCTATAGAGGTTAAGAAAGTGCGCT")
-0.194
>>> experimental_value("CTACCAAGGTTAACAAGGTCGTTGATTACTATTC")
0.472
>>> experimental_value("AGAATGAGGTTACCAAAGATCAGGGGAACGCTTG")
-0.39
>>> experimental_value("TCATATAGGTAAACAGCTGAAAGTCCGTAAGTTA")
-0.215
>>> experimental_value("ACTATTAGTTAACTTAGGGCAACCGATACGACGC")
0.392
>>> experimental_value("TTACCAAGGAGAAGGTCGTTGATCCCTCTGTAGA")
-0.829
>>> experimental_value("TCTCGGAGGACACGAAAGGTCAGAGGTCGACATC")
0.107
>>> experimental_value("CCGACTGGGGCATAAGGTTACCCTAAGCCAGCCC")
-1.18
>>> experimental_value("CGGACGAGGGCATGAGTTGATAGCAAATGCCGAT")
-0.96
>>> experimental_value("TCTTGTAGATCAAGCAGGATAAGAAAGCCTGAGT")
-0.605
>>> experimental_value("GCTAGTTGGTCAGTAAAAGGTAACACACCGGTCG")
-0.224
>>> experimental_value("TCTATTAGTTGATTTGGGCAACCGAAACAGCGGA")
1.2
>>> experimental_value("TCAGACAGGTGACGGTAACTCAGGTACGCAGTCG")
-0.599
>>> experimental_value("GCTAGGAGGACAAGGTCAGAGCTTTGTCCGTAGA")
-0.916
>>> experimental_value("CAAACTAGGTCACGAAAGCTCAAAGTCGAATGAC")
0.287
>>> experimental_value("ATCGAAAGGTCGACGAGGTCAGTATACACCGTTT")
0.78
>>> experimental_value("CCTCGGTGGACAGAAGGTCAGAGCTGTCCGCTTT")
-0.688
>>> experimental_value("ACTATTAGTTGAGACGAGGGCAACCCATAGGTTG")
0.34
>>> experimental_value("CCTTACTGGTCACTCCAGGTTATAGCATCGGAGT")
0.798
>>> experimental_value("ATATGTAGGTTAAGGGTCATTTAGGTTGGTTCGC")
1.82
>>> experimental_value("ATCTCTAGGTAAAGATAGTACAGTGAATGCAAAT")
0.424
>>> experimental_value("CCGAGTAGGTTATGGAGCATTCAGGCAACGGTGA")
-0.185
>>> experimental_value("GAAGACAGGTGAAACGCAGGTAACTCAGGGTGGC")
-0.743
>>> experimental_value("ACTAGCAGGACAAGGGTCACTCAAGATTAGTCCG")
0.105
>>> experimental_value("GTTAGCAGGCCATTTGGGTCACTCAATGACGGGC")
-0.589
>>> experimental_value("ACTAGCAGGCCAAGTGTCACTCAAGATTAGTCCG")
-0.742
>>> experimental_value("GCGACTGGGGCAAAGCAGGTCACCATAAGGTTGG")
-1.06
>>> experimental_value("GCATATAGGTCATACAAGGTGAAAGTCCGATTGT")
0.913
>>> experimental_value("CCTACTGGGCCATCAGGGCATTGATATCAACGTT")
-0.886
>>> experimental_value("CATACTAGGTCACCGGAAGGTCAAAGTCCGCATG")
2.08
>>> experimental_value("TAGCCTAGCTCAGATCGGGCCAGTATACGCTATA")
-1.34
>>> experimental_value("CTTCAAAGTTCAACTAAGGTAACGTAAAGCACGC")
2.56
>>> experimental_value("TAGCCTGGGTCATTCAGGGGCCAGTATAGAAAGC")
0.00492
>>> experimental_value("AGTCAAAGTTCACTAGGTAACGCAAGATTCAGCT")
0.956
>>> experimental_value("CCTACTGGGCCCCGAAAGGTCATTGATTCAGTGA")
0.0468
>>> experimental_value("CAAACTAGGTCAACAGGTCAAAGTCCGCTTCCCG")
1.14
>>> experimental_value("GCATATAGGTTATACAAGGTGAAAGTCCGATTGT")
0.203
>>> experimental_value("ATCTCTAGGGAAAGATAGTTCAGTGAATGCAAAT")
0.479
>>> experimental_value("ATCTCAAGGTAAAAGTTCAGTGAATCCCGAGGAT")
0.539
>>> experimental_value("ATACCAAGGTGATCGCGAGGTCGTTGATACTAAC")
-0.19
>>> experimental_value("AGAATGATGTTATTAAGATCAGGGAATTGCGGTC")
-0.205
>>> experimental_value("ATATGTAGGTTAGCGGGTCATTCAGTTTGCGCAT")
0.826
>>> experimental_value("GCTAGTTGGTTAGTAAAAGGTCACACACCGGTCG")
1.08
>>> experimental_value("GGAACGAGGGCATTCGAGTTGATAACATGGCGAT")
-0.451
>>> experimental_value("CCTAGTTGGTCAACGTCACACACGCTATAGGTAC")
0.581
>>> experimental_value("CGTCCAAGGTCAAAGAGGTCAGTGAATGCCGAGT")
1.51
>>> experimental_value("TGTCCAAGTTCAAAGGTAACGTAAGTATCCACAC")
0.689
